studyTarget: T1, histidine-tagged human Siglec-7 (NovoProtein) (human, UniProt Q9Y286 19-353)
T1 construct: Bought protein; also called recombinant human Siglec-7; recombinant Siglec-7; not shown: histidine tag
T1 sequence (Q9Y286 19-353 limits assumed): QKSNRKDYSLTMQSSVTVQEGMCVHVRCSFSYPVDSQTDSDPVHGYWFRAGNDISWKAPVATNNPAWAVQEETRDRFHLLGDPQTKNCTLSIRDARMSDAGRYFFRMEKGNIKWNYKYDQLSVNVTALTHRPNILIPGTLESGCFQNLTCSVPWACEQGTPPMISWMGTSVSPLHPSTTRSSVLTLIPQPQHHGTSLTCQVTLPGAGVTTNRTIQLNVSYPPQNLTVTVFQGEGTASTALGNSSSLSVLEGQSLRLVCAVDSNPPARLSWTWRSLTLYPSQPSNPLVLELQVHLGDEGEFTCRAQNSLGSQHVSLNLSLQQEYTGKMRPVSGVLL
testDescription: BLI, antibody captured
This section presents binders with their documented fold improvement over S7AB-H8 values.
Numeric only. Scale: fold

In: Requested field: fold improvement over S7AB-H8. Item: S7AB-H8.18 (antibody, V domains shown) VH: QVQLVQSGAEVKKPGASVKVSCKASGYAFTGYWMNWVRQAPGQGLEWIGRIFPGLGHTNYAQKFQGRATLTEDTSTSTAYMELSSLRSEDTAVYYCARDYSDYYFDYWGQGTLVTVSS VL: DIQMTQSPSSLSASVGDRVTITCRGSQDTNTYLNWYQQKPGKAPKLLIYYTSRLHSGVPSRFSGSGSGTDYTLTISSLQPEDFATYYCQQGNTLPWTFGQGTKLEIK
Out: 1.5

New cases:
In: Requested field: fold improvement over S7AB-H8. Item: S7AB-H8.19 (antibody, V domains shown) VH: QVQLVQSGAEVKKPGASVKVSCKASGYAFTAAWMNWVRQAPGQGLEWIGRIFPGLGHTNYAQKFQGRATLTEDTSTSTAYMELSSLRSEDTAVYYCARDYSDYYFDYWGQGTLVTVSS VL: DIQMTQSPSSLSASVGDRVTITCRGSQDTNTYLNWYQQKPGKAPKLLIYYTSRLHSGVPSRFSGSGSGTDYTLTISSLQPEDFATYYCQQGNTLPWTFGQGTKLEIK
Out: 1.2
